- Test system: 60 different human tumor cell lines
- Setup Conditions: PC-3 (Prostate Cancer), five dose
Value Kind: TGI
Write the number on its own, no unit after it.

### Prompt Lab note: need TGI for `C[C@]12CCc3nc(Nc4ccc(O)cc4)sc3C1=CC[C@@H]1[C@@H]2CC[C@]2(C)C(=O)CC[C@@H]12` on 60 different human tumor cell lines, anyone have it?
### Response 8.15E−6

### Prompt Lab note: need TGI for `C[C@]12CCc3nc(N)sc3C1=CC[C@@H]1[C@@H]2CC[C@]2(C)C(=NNC(N)=O)CC[C@@H]12` on 60 different human tumor cell lines, anyone have it?
### Response 2.75E−6

### Prompt Lab note: need TGI for `C[C@]12CC[C@H]3[C@@H](CC=C4c5sc(Nc6ccccc6)nc5CC[C@@]43C)[C@@H]1CC[C@@H]2O` on 60 different human tumor cell lines, anyone have it?
### Response 5.84E−6

### Prompt Lab note: need TGI for `C[C@]12CCc3sc(Nc4cccc(O)c4)nc3C1=CC[C@@H]1[C@@H]2CC[C@]2(C)C(=O)CC[C@@H]12` on 60 different human tumor cell lines, anyone have it?
### Response 6.37E−5
